The origin of these recorded values is patent US20070098681A1.

- TARGET_OF_ASSAY: DR5-IgG (human)
- Sequence (chain, as listed by the source): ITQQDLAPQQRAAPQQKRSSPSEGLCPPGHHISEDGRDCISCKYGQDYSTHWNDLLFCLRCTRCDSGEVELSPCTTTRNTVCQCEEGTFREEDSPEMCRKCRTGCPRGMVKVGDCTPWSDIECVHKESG
- ASSAY_REMARKS: BIAcore SPR; KD relative to Flag.Apo2L.WT
MEASURED_PARAMETER: KD ratio (mut/wt)

[[record]]
binder = "Flag-Apo2L.DR4-9 (ligand) VRERGPQRVAAHITGTRGRSNTLSSPNSKNEKALGRKINSWESSRSGHSFLSNLHLRNGELVIHEKGFYYIYSQTAFRFSEEIKERTRNDKQMVQYIYKWTDYPDPILLMKSARNSCWSKDAEYGLYSIYQGGIFELKENDRIFVSVTNEHLIDMDHEASFFGAFLVG"
measured_parameter = "KD ratio (mut/wt)"
recorded_value = "1200 ratio (mut/wt)"

[[record]]
binder = "Flag-Apo2L.DR5-1 (ligand) VRERGPQRVAAHITGTRGRSNTLSSPNSKNEKALGRKINSWESSRSGHSFLSNLHLRNGELVIHEKGFYYIYSQTAFKFKEEIKENTKNDKQMVQYIYKYTSYPDPILLMKSARNSCWSKDAEYGLYSIYQGGIFELKENDRIFVSVTNEALIDMDHEASFFGAFLVG"
measured_parameter = "KD ratio (mut/wt)"
recorded_value = "2.2 ratio (mut/wt)"

[[record]]
binder = "Flag-Apo2L.DR5-2 (ligand) VRERGPQRVAAHITGTRGRSNTLSSPNSKNEKALGRKINSWESSRSGHSFLSNLHLRNGELVIHEKGFYYIYSQTAFKFKEEIKENTKNDKQMVQYIYKYTSYPDPILLMKSARNSCWSKDAEYGLYSIYQGGIFELKENDRIFVSVTNEHLIDMDHEASFFGAFLVG"
measured_parameter = "KD ratio (mut/wt)"
recorded_value = "1.9 ratio (mut/wt)"

